experiment: protein stability index of a GFP-peptide fusion (GPS, HEK-293T) (PSI 1-6); higher = more stable;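 note: 24-mer peptide tiles fused after GFP, lentivirally expressed, FACS-sorted into six equal bins by GFP/DsRed ratio, decoded by Illumina sequencing, PSI is the read-weighted mean bin number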
measurement parameters: treatment: MLN4924 1 uM, 8 h; c terminus: a fixed tail appended
This listing pairs sequences with measured protein stability index.
Lab note: jot the number down without any unit.

Solved entries (count: 5):
[[record]]
biopolymer_sequence = "IESAHRSRIKVLETSYQQREERLR [FBF1]"
measured_number = 3.82

[[record]]
biopolymer_sequence = "TQEKKAESKEPIEEEPTGAGLNKD [SDE2]"
measured_number = 5.41

[[record]]
biopolymer_sequence = "ERNNIAVRKSRDKAKRRNQEMQQK [CEBPD]"
measured_number = 3.31

[[record]]
biopolymer_sequence = "EPFVLPASSVESTLPVLEASSWKK [FBXO34]"
measured_number = 4.87

[[record]]
biopolymer_sequence = "RIPTCHDKPGTTQIVQLTQQVDTN [DENND6A]"
measured_number = 4.59


# protein stability index (sequence: `KRMSELCIDFNKNLNEDDTFLVFS` ) is 2.58

# protein stability index (sequence: RWASAPPLYTLIDVLKYSYVRLVC [ZSWIM9] ) is 3.01

# protein stability index (sequence: YLMKTKQFRLKEAFDYIKQRRSMV [DUSP5] ) is 2.11

# protein stability index (sequence: LEVEREAEKKREAKQRAKEAQERE [LRRC59] ) is 5.63

# protein stability index (sequence: LQHGDQLSICFTCFKAAFLDFKDL [TEX19] ) is 2.51

# protein stability index (sequence: RGNPELARLRPGLAVLGADERIFS [HAGHL] ) is 3.65

====

This listing pairs sequences with measured protein stability index.
experiment: protein stability index of a GFP-peptide fusion (GPS, HEK-293T) (PSI 1-6); higher = more stable
measurement parameters: treatment: DMSO; c terminus: a fixed tail appended
Lab note: jot the number down without any unit.

[[record]]
biopolymer_sequence = "EQLERINDALSCEYECRRRMLMKR [FAM98B]"
observed_property = "protein stability index"
measured_number = 3.09

[[record]]
biopolymer_sequence = "ESPFSRKLDLWSFLDIPRSRLVKY [NET1]"
observed_property = "protein stability index"
measured_number = 2.06


# protein stability index (sequence: IDKGDESWVTDMCKVGASSDPCGQ [PNLIPRP1] ) is 4.52

# protein stability index (sequence: KDGEYCWRWTGFNFGFDLLVTYTN [GMCL1] ) is 3.44

# protein stability index (sequence: DDKDALVFVLIDEVESLTAARNAC [TRIP13] ) is 2.21

# protein stability index (sequence: VFCREGPTHQAHTVGFLDEAIQPY [TRIM15] ) is 2.85

# protein stability index (sequence: EAAMAIASLNGYRLGERVLQVSFK [ELAVL3] ) is 2.24

# protein stability index (sequence: LFSNSDHQRDGTLGALHTSSKPTA [SASS6] ) is 4.36

====

experiment: protein stability index of a GFP-peptide fusion (GPS, HEK-293T) (PSI 1-6); higher = more stable
measurement parameters: treatment: DMSO; c terminus: a fixed tail appended
Record yes whenever protein stability index is at 3 or higher; record no when lower.

Does AVETEGSGSRHPPWARGCGMFTFL [SLC2A12] have a reported protein stability index of at least 3?
no

====

experiment: protein stability index of a GFP-peptide fusion (GPS, HEK-293T) (PSI 1-6); higher = more stable
measurement parameters: treatment: MLN4924 1 uM, 8 h; c terminus: a fixed tail appended
Record class 1 whenever protein stability index is at 3 or higher; record class 0 when lower.

[[record]]
biopolymer_sequence = "HILAAEQLSRDSTLGGKAFHITND [NSDHL]"
cat = "class 1"

[[record]]
biopolymer_sequence = "IFQEKHVNLLHIESRKSKRRNSEF [TPH1]"
cat = "class 1"

[[record]]
biopolymer_sequence = "KRASAPTFDNDYSLSELLSQLDSG [RIPK4]"
cat = "class 1"

[[record]]
biopolymer_sequence = "NRGINITIYGKTFRVVDCDQFTQV [EFHC1]"
cat = "class 0"

[[record]]
biopolymer_sequence = "EPNTLRAPRVRTAFTMEQVRTLEG [VENTX]"
cat = "class 1"


Does GNPRALSFVLSSLQLGEGVEFDVL [OAS1] have a reported protein stability index of at least 3?
class 0

Does RFSSGGACGLGGGYGGGFSSSSSF [KRT16] have a reported protein stability index of at least 3?
class 0

Does TRYHLQQARRQQVKQYLSTTLGPK [TFE3] have a reported protein stability index of at least 3?
class 1

Does RLKRTRLGLDDFESLKVIGRGAFG [STK38L] have a reported protein stability index of at least 3?
class 0

Does FGVTYLEDYSAEYIIQQGGWGTVF [BCL2L13] have a reported protein stability index of at least 3?
class 0

Does LEEEEEEEEEAEDEEVVATAGDRL [IRX6] have a reported protein stability index of at least 3?
class 1

Does ELMAELEELEQEELNKKMTNIRLP [CHMP4C] have a reported protein stability index of at least 3?
class 1

Does REEERPLPRRDFQRQVWLLFEYPE [KCNA3] have a reported protein stability index of at least 3?
class 0

Does LNFQIEHHLFPTMPRHNYHKVAPL [FADS1] have a reported protein stability index of at least 3?
class 0

Does SVQQNGSIYIHVYFTKSGFHPDPR [CLPTM1] have a reported protein stability index of at least 3?
class 0

Does LGAQTQFDVKNDRYIVNGSHEANK [EIF5] have a reported protein stability index of at least 3?
class 1

Does EQELLRRQQRLNQLEKPPEKEEDH [FAM107A] have a reported protein stability index of at least 3?
class 1

Does RPRTRKVKSVSPQGNSVDRMAAPR [NCF4] have a reported protein stability index of at least 3?
class 1

Does ILDTAGQAEFTAMRDQYMRAGEGF [RIT1] have a reported protein stability index of at least 3?
class 1

Does PLIIAARNGHAKVVRLLLEHYRVQ [FEM1B] have a reported protein stability index of at least 3?
class 0

====

experiment: protein stability index of a GFP-peptide fusion (GPS, HEK-293T) (PSI 1-6); higher = more stable
measurement parameters: treatment: MLN4924 1 uM, 8 h; c terminus: a fixed tail appended
This listing pairs sequences with measured protein stability index.
Lab note: jot the number down without any unit.

Solved entries (count: 3):
[[record]]
biopolymer_sequence = "TKMWHPNIYENGDVCISILHPPVD [UBE2R2]"
measured_number = 2.23

[[record]]
biopolymer_sequence = "QTPEQYYFCYKAILEFAEKEGMVS [PTPN9]"
measured_number = 2.22

[[record]]
biopolymer_sequence = "RSSALWSEMLDITMKESLTTREIR [NET1]"
measured_number = 3.23


# protein stability index (sequence: QTEKLDTNITEVDAASVYTLPAGA [CASP6] ) is 4.81

# protein stability index (sequence: RVYDGREILTCGRDGEPEPMQKLQ [RBBP5] ) is 3.94

# protein stability index (sequence: KEAVLAMEKKSKPKNSVWKRLKSP [RIT1] ) is 4.19

====

experiment: protein stability index of a GFP-peptide fusion (GPS, HEK-293T) (PSI 1-6); higher = more stable
measurement parameters: treatment: MLN4924 1 uM, 8 h; c terminus: a fixed tail appended
Record Met whenever protein stability index is at 4 or higher; record Not met when lower.

Observe how each entry below is paired with its result.
[[record]]
biopolymer_sequence = "AKYCGHLYGLGSGSSYVQNGTGNA [CNOT7]"
cat = "Not met"

[[record]]
biopolymer_sequence = "DERRQLQHLKSKALRERWLLEGTP [PALM]"
cat = "Not met"

[[record]]
biopolymer_sequence = "PSLPAAGEQDCCGERVVINISGLR [KCNA3]"
cat = "Not met"

[[record]]
biopolymer_sequence = "FSNTSELAKDFIRRLLVKDPKRRM [DAPK3]"
cat = "Not met"

[[record]]
biopolymer_sequence = "ELGSPLRRSISSSRSENVLSRLSL [PSD2]"
cat = "Not met"

[[record]]
biopolymer_sequence = "CSFCKRAFPSGHLLDAHILEWHDS [ZNF511]"
cat = "Met"

[[record]]
biopolymer_sequence = "CTLGDPNKLPEGVPQPARMPYISD [KLHL20]"
cat = "Met"

[[record]]
biopolymer_sequence = "NATAPRSPSHSPEHRRTARRTPPG [ELOA2]"
cat = "Met"


Does ASASKFPSSGPVTPQPTALTFAKS [AUP1] have a reported protein stability index of at least 4?
Met

====

This listing pairs sequences with measured protein stability index.
experiment: protein stability index of a GFP-peptide fusion (GPS, HEK-293T) (PSI 1-6); higher = more stable
measurement parameters: treatment: MLN4924 1 uM, 8 h; c terminus: a fixed tail appended
Lab note: jot the number down without any unit.

Solved entries (count: 4):
[[record]]
biopolymer_sequence = "HAPQISYTGPSSSGRFAGREWYYG [NCK2]"
observed_property = "protein stability index"
measured_number = 2.8

[[record]]
biopolymer_sequence = "GFSCDGTANTFRVMFKEPIEILPN [BTBD1]"
observed_property = "protein stability index"
measured_number = 2.73

[[record]]
biopolymer_sequence = "HLQLLGAVCMFLASKLKETSPLTA [CCND2]"
observed_property = "protein stability index"
measured_number = 2.36

[[record]]
biopolymer_sequence = "GAYQPTVVSSEGRQSRRQSVSRFF [FBF1]"
observed_property = "protein stability index"
measured_number = 4.1


# protein stability index (sequence: TRKINNSFLRDHSYATEADIISTV [PPP2R2B] ) is 3.32

# protein stability index (sequence: SEDRTVRVWLKRDSGQYWPSVYHA [WDFY2] ) is 2.37

# protein stability index (sequence: YGYAAQARARERERLAHSRAAAAA [KCNA4] ) is 4.02

# protein stability index (sequence: EPPPEVWQVLKTHPGDPRFQCSLW [POLD4] ) is 2.55

# protein stability index (sequence: MCQTKHSPWADGTPCGPAQACMGG [ADAMTS4] ) is 3.44

# protein stability index (sequence: KEQDVEKELRDGGEQDTWAGEGAE [NFE2L1] ) is 5.83

# protein stability index (sequence: EQDAACGFCFFNSVAVAARHAQTI [HDAC6] ) is 1.95

# protein stability index (sequence: TSLEITILTSQPGKEVVKQLEEGL [M1AP] ) is 2.68

# protein stability index (sequence: RKSMLDAGPDSWGSDAEQSTSGQP [LCOR] ) is 5.15

# protein stability index (sequence: VLTDSNHVPLQRLSLLVHNVSVMH [FBXO33] ) is 2.22

# protein stability index (sequence: CSQLLESSYFDSFQEAQIKRKARN [CDKL4] ) is 3.53

# protein stability index (sequence: RQGNPSWKKQQKCDECGKIFSQSS [ZNF396] ) is 3.92

# protein stability index (sequence: FQKSHNSLQRWEHLKKVASRYQNN [PRIM1] ) is 2.9

# protein stability index (sequence: QPKKPEDEPQETAYRTQVSSCCLH [PKD2L1] ) is 4.96

# protein stability index (sequence: STGYCWCVLVDTGRPIPGTSTRYE [SMOC2] ) is 2.12

# protein stability index (sequence: LLWATNEFSLVNVNLQRFGMNGQM [ETS2] ) is 2.94

# protein stability index (sequence: TLRTCYAANPRPDALMKEQLVEMT [ISL2] ) is 3.52

# protein stability index (sequence: QNIYKCIMLKNISQDERLDVLLTL [IQUB] ) is 2.61
